Taken from PubChem BioAssay.

Please provide measured NADPH fluorescence slope for the entries that follow.
target: Voltage-gated potassium channel subunit beta-2 (Rattus norvegicus); experiment: enhancers of rat Kvbeta2 NADPH turnover – biochemical, NADPH fluorescence, primary screen (AID 623); settings: Recombinant KvBeta, NADPH fluorescence decrease slope, 10 min; at 10 µM; active compounds read low;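 note: fluorescence intensity change per second fitted from 20 to 320 s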
Just the number, please, no unit attached.

(Q) # return recorded NADPH fluorescence slope for entry `Nc1c(C(=O)NCc2ccco2)c2nc3ccccc3nc2n1Cc1ccc(F)cc1`
(A) -1e-05

(Q) # return recorded NADPH fluorescence slope for entry CC12CCCCC1=[N+]([O-])CN2O (configuration not stated)
(A) 1.5e-05

(Q) # return recorded NADPH fluorescence slope for entry CC(C)OCCCNC(=O)c1c(N)n(CC2CCCO2)c2nc3ccccc3nc12 (configuration not stated)
(A) 2e-05

(Q) # return recorded NADPH fluorescence slope for entry `C=C1CC[C@@]2(O)[C@H]3Cc4ccc(O)c5c4[C@@]2(CCN3CC2CC2)[C@H]1O5`
(A) -4e-05

(Q) # return recorded NADPH fluorescence slope for entry `CCCCCCn1c(O)c(C=NCCN2CCCCC2)c(=O)[nH]c1=O`
(A) -2.4e-06

(Q) # return recorded NADPH fluorescence slope for entry CCC(C(=O)N1CCC2(CC1)OCCO2)c1ccccc1 (configuration not stated)
(A) -2.6e-05

(Q) # return recorded NADPH fluorescence slope for entry C#CCN(C)C(C)Cc1ccccc1 (configuration not stated)
(A) -7.1e-05

(Q) # return recorded NADPH fluorescence slope for entry `CCCCCCn1c(O)c(C=Nc2c(C)n(C)n(-c3ccccc3)c2=O)c(=O)[nH]c1=O`
(A) -0.000298

(Q) # return recorded NADPH fluorescence slope for entry `CC(=O)Nc1ccc(OC(=O)c2ccccc2N)cc1`
(A) -1.3e-05

(Q) # return recorded NADPH fluorescence slope for entry NCC(CC(=O)O)c1ccc(Cl)cc1 (configuration not stated)
(A) -4.9e-05

(Q) # return recorded NADPH fluorescence slope for entry `COc1ccc(CCn2c(O)c(C=NCCCN(C)C)c(=O)[nH]c2=O)cc1OC`
(A) -2.8e-05

(Q) # return recorded NADPH fluorescence slope for entry COc1ccc(S(=O)(=O)NC(CC(=O)N2CCC3(CC2)OCCO3)c2ccco2)cc1 (configuration not stated)
(A) -0.000345

(Q) # return recorded NADPH fluorescence slope for entry `O=c1[nH]c(=O)n(-c2ccc(F)cc2)c(O)c1C=Nc1ccccc1N1CCCC1`
(A) 1.9e-06

(Q) # return recorded NADPH fluorescence slope for entry `CCCCn1c(O)c(C(C)=Nc2cccc(C(=O)O)c2)c(=O)[nH]c1=O`
(A) 2.7e-05

(Q) # return recorded NADPH fluorescence slope for entry CCCSP1(=S)NCCCO1 (configuration not stated)
(A) -7.2e-05

(Q) # return recorded NADPH fluorescence slope for entry `CCCNC(=O)c1c(N)n(Cc2ccc3c(c2)OCO3)c2nc3ccccc3nc12`
(A) -2.1e-05

(Q) # return recorded NADPH fluorescence slope for entry `O=C(Cn1ncc2c3ccccc3n(Cc3ccc(F)cc3)c2c1=O)N1CCC2(CC1)OCCO2`
(A) -5.2e-05

(Q) # return recorded NADPH fluorescence slope for entry `Cc1cc(C)c(C(=O)CN2CCOCC2)c(C)c1`
(A) -0.000154

(Q) # return recorded NADPH fluorescence slope for entry `O=C(O)C1(c2ccc(Cl)cc2)CCC1`
(A) 2.3e-05

(Q) # return recorded NADPH fluorescence slope for entry `CCCCOc1ccc(CN2CCN(CCO)CC2)cc1`
(A) -0.00013

(Q) # return recorded NADPH fluorescence slope for entry `CN(C)CCc1nc2ccccc2c(=O)n1-c1ccccc1`
(A) -5e-05

(Q) # return recorded NADPH fluorescence slope for entry `CC(C)[C@@]1(NC(=O)[C@@H]2C=C3c4cccc5[nH]cc(c45)C[C@H]3N(C)C2)O[C@@]2(O)[C@@H]3CCCN3C(=O)[C@H](Cc3ccccc3)N2C1=O`
(A) -1e-05

(Q) # return recorded NADPH fluorescence slope for entry `O=C(O)Cn1cc(C(=O)c2ccccc2)c2ccccc21`
(A) 1.2e-06

(Q) # return recorded NADPH fluorescence slope for entry `COc1ccccc1OCCCn1cc(C(=O)c2ccco2)c2ccccc21`
(A) -2.9e-06

(Q) # return recorded NADPH fluorescence slope for entry CCOCC(=O)NC1CCSC1=O (configuration not stated)
(A) -4.8e-05

(Q) # return recorded NADPH fluorescence slope for entry CCOCCN1CCC(OC(C)=O)C(C)C1 (configuration not stated)
(A) -0.000103

(Q) # return recorded NADPH fluorescence slope for entry `O=C(CN1CCN(CCO)CC1)Nc1ccc(Cl)cc1C(=O)c1ccccc1`
(A) -0.000121

(Q) # return recorded NADPH fluorescence slope for entry `Cc1ccc(S(=O)(=O)Cc2ccc(C(=O)N3CCC4(CC3)OCCO4)o2)cc1`
(A) -0.000506

(Q) # return recorded NADPH fluorescence slope for entry CC1(C)C(c2ccccc2)=NC(c2cccnc2)N1O (configuration not stated)
(A) -6.7e-05

(Q) # return recorded NADPH fluorescence slope for entry `COc1cc2[nH]c(=O)n(-c3cccc(Cl)c3)c(=O)c2cc1OC`
(A) -0.000203

(Q) # return recorded NADPH fluorescence slope for entry CC(C)(C)P(=O)(c1ccncc1)N1CCCC1 (configuration not stated)
(A) -4.3e-05

(Q) # return recorded NADPH fluorescence slope for entry `O=C(CN1CCN(Cc2cccc(Cl)c2)C1=O)N1CCC2(CC1)OCCO2`
(A) -1.5e-05

(Q) # return recorded NADPH fluorescence slope for entry `CCn1c(C)c(C(=O)O)c2cc(OC)ccc21`
(A) -2.5e-05

(Q) # return recorded NADPH fluorescence slope for entry `CCOc1ccc(-n2c(O)c(C=Nc3ccc(N(CC)CC)cc3)c(=O)[nH]c2=O)cc1`
(A) -0.000118

(Q) # return recorded NADPH fluorescence slope for entry `Cc1c(N=Cc2c(O)n(CCc3ccccc3)c(=O)[nH]c2=O)c(=O)n(-c2ccccc2)n1C`
(A) -1.6e-05

(Q) # return recorded NADPH fluorescence slope for entry `CN1CCN(c2nc3ccccc3c(=O)n2-c2ccccc2)CC1`
(A) -2.8e-05

(Q) # return recorded NADPH fluorescence slope for entry CCOC(C(=O)OCC(O)CN(CC)CC)(c1ccccc1)c1ccccc1 (configuration not stated)
(A) -0.000326

(Q) # return recorded NADPH fluorescence slope for entry O=C(C(Cc1ccccc1)NS(=O)(=O)c1ccc(F)cc1)N1CCC2(CC1)OCCO2 (configuration not stated)
(A) 8.6e-06

(Q) # return recorded NADPH fluorescence slope for entry `COc1ccc(Cn2c(O)c(C=NCCN3CCOCC3)c(=O)[nH]c2=O)cc1`
(A) -2.7e-06

(Q) # return recorded NADPH fluorescence slope for entry O=C1NCCN2CCCC12 (configuration not stated)
(A) -0.000122

(Q) # return recorded NADPH fluorescence slope for entry CNCC(O)c1ccc(O)cc1 (configuration not stated)
(A) 1.3e-05

(Q) # return recorded NADPH fluorescence slope for entry `O=c1[nH]c(=O)n(C2CCCCC2)c(O)c1C=NCCCn1ccnc1`
(A) 6.8e-06

(Q) # return recorded NADPH fluorescence slope for entry `CCCCSP1(=S)NCCCN1`
(A) -0.000231

(Q) # return recorded NADPH fluorescence slope for entry `CN1C(=O)CN=C(c2ccc(Cl)cc2)c2cc(Cl)ccc21`
(A) -4.1e-05

(Q) # return recorded NADPH fluorescence slope for entry OC(Cc1ccccc1)(c1ccccc1)C1CN2CCC1CC2 (configuration not stated)
(A) -2.1e-05

(Q) # return recorded NADPH fluorescence slope for entry COC(=O)c1cncn1C(C)c1ccccc1 (configuration not stated)
(A) -2.9e-05

(Q) # return recorded NADPH fluorescence slope for entry COC(=O)C(c1ccccc1)N1CCCCCC1 (configuration not stated)
(A) -3.5e-05
